assay-name: self-splicing fitness, log relative to wild type (ln ratio); higher = more splicing; Tetrahymena group I intron in knt gene, E. coli kanamycin selection, DiMSum; sequences stand for … in CUCUCU…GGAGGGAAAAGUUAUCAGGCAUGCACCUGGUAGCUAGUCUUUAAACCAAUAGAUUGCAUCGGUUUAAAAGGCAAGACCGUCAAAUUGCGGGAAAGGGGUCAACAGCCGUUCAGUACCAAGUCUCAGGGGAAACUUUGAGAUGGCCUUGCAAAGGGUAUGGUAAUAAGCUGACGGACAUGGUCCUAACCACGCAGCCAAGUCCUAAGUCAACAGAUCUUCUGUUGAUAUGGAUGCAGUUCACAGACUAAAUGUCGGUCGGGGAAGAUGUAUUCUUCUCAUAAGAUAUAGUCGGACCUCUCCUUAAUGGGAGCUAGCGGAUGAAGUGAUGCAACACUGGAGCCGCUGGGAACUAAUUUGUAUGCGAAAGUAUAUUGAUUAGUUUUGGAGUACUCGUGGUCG;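 further: selection with 25 µg/mL kanamycin versus none on LB agar overnight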
assay-context: 37 °C
Classes (self-splicing fitness (ln)): band 1: < -3; band 2: ≥ -3 and < -2; band 3: ≥ -2

INSERT INTO assay_data (sequence_text, class_assignment) VALUES
  ('CUGCAGCAAUAUUACGACAU', 'band 3'),
  ('CAUGAGCAAUAUUACGAGGU', 'band 1'),
  ('UUAAAGCAAUAUUACGCUUU', 'band 3'),
  ('GGGAAGCAAUAUUACGUUAA', 'band 3'),
  ('GAGAAGCAAUAUUACGCAAC', 'band 2'),
  ('AACUAGCAAUAUUACGCCAU', 'band 2'),
  ('UGAGAGCAAUAUUACGUUAG', 'band 1'),
  ('UUCUAGCAAUAUUACGUCGG', 'band 1'),
  ('UGAUAGCAAUAUUACGAAGG', 'band 2'),
  ('ACCGAGCAAUAUUACGAAUU', 'band 3');

----------
assay-name: self-splicing fitness, log relative to wild type (ln ratio); higher = more splicing; Tetrahymena group I intron in knt gene, E. coli kanamycin selection, DiMSum; sequences stand for … in CUCUCU…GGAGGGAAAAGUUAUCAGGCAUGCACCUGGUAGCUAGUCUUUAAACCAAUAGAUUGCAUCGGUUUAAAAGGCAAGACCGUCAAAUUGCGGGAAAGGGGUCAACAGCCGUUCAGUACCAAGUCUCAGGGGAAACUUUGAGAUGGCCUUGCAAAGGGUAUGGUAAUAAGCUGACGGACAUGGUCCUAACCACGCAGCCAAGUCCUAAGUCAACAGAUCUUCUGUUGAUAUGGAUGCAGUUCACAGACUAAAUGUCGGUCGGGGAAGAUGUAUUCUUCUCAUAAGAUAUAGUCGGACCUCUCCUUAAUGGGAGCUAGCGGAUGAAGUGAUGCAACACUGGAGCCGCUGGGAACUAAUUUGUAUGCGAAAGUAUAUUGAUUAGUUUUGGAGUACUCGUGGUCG
assay-context: 37 °C
readout: self-splicing fitness (ln)

INSERT INTO assay_data (sequence_text, readout, meas_value) VALUES
  ('AACUAGCAAUAUUACGUGCU', 'self-splicing fitness (ln)', -1.97),
  ('GGGAAGCAAUAUUACGGCUU', 'self-splicing fitness (ln)', -1.41),
  ('CAACAGCAAUAUUACGGGUG', 'self-splicing fitness (ln)', -0.569),
  ('CAGUAGCAAUAUUACGUAUU', 'self-splicing fitness (ln)', -1.81),
  ('GGUCAGCAAUAUUACGAGGA', 'self-splicing fitness (ln)', -1.73),
  ('UUCGAGCAAUAUUACGACUG', 'self-splicing fitness (ln)', -1.48),
  ('AAAUAGCAAUAUUACGGGAA', 'self-splicing fitness (ln)', -1.34),
  ('UAUUAGCAAUAUUACGACAC', 'self-splicing fitness (ln)', -1.92),
  ('GCAAAGCAAUAUUACGCGCA', 'self-splicing fitness (ln)', -0.0967),
  ('CGGGAGCAAUAUUACGUAUA', 'self-splicing fitness (ln)', -2.4),
  ('UUCAAGCAAUAUUACGCUUA', 'self-splicing fitness (ln)', -1.2),
  ('AAGGAGCAAUAUUACGUCCC', 'self-splicing fitness (ln)', -1.06),
  ('ACUAAGCAAUAUUACGGCGC', 'self-splicing fitness (ln)', -0.477),
  ('UAUCAGCAAUAUUACGGCGC', 'self-splicing fitness (ln)', -1.12),
  ('GAGUAGCAAUAUUACGCAGA', 'self-splicing fitness (ln)', -2.41),
  ('ACAUAGCAAUAUUACGCAAG', 'self-splicing fitness (ln)', -1.25),
  ('GGUUAGCAAUAUUACGAAGC', 'self-splicing fitness (ln)', -1.24),
  ('AUUCAGCAAUAUUACGCAAC', 'self-splicing fitness (ln)', -0.188),
  ('AGGGAGCAAUAUUACGUACC', 'self-splicing fitness (ln)', -1.52),
  ('UCGCAGCAAUAUUACGGGGC', 'self-splicing fitness (ln)', -2.63),
  ('UAGAAGCAAUAUUACGGCGU', 'self-splicing fitness (ln)', -0.678);

----------
assay-name: self-splicing fitness, log relative to wild type (ln ratio); higher = more splicing; Tetrahymena group I intron in knt gene, E. coli kanamycin selection, DiMSum; sequences stand for … in CUCUCU…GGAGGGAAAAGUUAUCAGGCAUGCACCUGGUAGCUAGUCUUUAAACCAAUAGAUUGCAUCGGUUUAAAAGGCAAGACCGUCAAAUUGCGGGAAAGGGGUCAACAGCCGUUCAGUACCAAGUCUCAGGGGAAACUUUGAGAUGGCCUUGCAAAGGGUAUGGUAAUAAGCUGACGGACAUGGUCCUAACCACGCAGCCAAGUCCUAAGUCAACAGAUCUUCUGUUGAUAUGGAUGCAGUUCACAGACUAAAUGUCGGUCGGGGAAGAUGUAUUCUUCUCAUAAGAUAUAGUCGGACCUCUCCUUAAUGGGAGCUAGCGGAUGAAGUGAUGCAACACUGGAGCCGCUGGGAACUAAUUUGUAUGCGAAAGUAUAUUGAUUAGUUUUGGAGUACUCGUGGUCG
assay-context: 37 °C
Listed here: items and their measured self-splicing fitness (ln).
readout: self-splicing fitness (ln)

INSERT INTO measurements (sequence_text, meas_value) VALUES
  ('AUACAGCAAUAUUACGGGUG', -1),
  ('CUUCAGCAAUAUUACGCGUG', -0.978),
  ('AGUUAGCAAUAUUACGAAGC', -1.98),
  ('GCAAAGCAAUAUUACGGGAU', -0.98);

----------
assay-name: self-splicing fitness, log relative to wild type (ln ratio); higher = more splicing; Tetrahymena group I intron in knt gene, E. coli kanamycin selection, DiMSum; sequences stand for … in CUCUCU…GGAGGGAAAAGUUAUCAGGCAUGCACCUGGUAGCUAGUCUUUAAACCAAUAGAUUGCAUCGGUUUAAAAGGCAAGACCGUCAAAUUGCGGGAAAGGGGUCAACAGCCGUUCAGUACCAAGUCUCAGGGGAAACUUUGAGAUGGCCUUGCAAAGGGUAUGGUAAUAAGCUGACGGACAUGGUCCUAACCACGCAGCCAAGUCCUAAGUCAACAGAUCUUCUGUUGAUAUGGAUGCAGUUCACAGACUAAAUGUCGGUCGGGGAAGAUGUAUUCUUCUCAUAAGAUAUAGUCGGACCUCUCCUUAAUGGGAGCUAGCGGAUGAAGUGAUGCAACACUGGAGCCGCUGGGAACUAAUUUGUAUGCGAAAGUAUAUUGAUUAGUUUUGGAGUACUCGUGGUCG
assay-context: 30 °C
readout: self-splicing fitness (ln)

INSERT INTO assay_data (sequence_text, readout, meas_value) VALUES
  ('UUUCAGCAAUAUUACGCAUG', 'self-splicing fitness (ln)', -0.765),
  ('CAUUAGCAAUAUUACGAAUG', 'self-splicing fitness (ln)', -2.67),
  ('AUCCAGCAAUAUUACGCCGU', 'self-splicing fitness (ln)', -0.864),
  ('CUUUAGCAAUAUUACGUUUU', 'self-splicing fitness (ln)', -3.27),
  ('UAGAAGCAAUAUUACGAAUC', 'self-splicing fitness (ln)', -3.48),
  ('UCGCAGCAAUAUUACGAGGA', 'self-splicing fitness (ln)', -2.88),
  ('UUAAAGCAAUAUUACGCACA', 'self-splicing fitness (ln)', 0.245),
  ('CAUCAGCAAUAUUACGCUCA', 'self-splicing fitness (ln)', -1.55),
  ('CCUCAGCAAUAUUACGCGUG', 'self-splicing fitness (ln)', -1.85),
  ('CUUCAGCAAUAUUACGGAGG', 'self-splicing fitness (ln)', -3.09),
  ('ACCGAGCAAUAUUACGGCUU', 'self-splicing fitness (ln)', -2.63),
  ('CCACAGCAAUAUUACGUAGC', 'self-splicing fitness (ln)', -4.48),
  ('CAGGAGCAAUAUUACGAGCG', 'self-splicing fitness (ln)', -1.04),
  ('AAAAAGCAAUAUUACGGAUU', 'self-splicing fitness (ln)', -0.657),
  ('UGGAAGCAAUAUUACGUUGA', 'self-splicing fitness (ln)', -2.36),
  ('GUCAAGCAAUAUUACGGCCG', 'self-splicing fitness (ln)', -2.31),
  ('UACAAGCAAUAUUACGGGCG', 'self-splicing fitness (ln)', -0.448);
